- PROTOCOL: Concentration in nmol/plate to induce 50 revertants/plate.
- Format: ADME
OBSERVABLE: Log 1/C
Give the value as a plain number.

Look over these answered cases.
ENTRY SMILES	Log 1/C
CN(Cc1ccc(F)cc1)N=O	-2.969
CN(Cc1cccc(C(F)(F)F)c1)N=O	-1.961
CN(Cc1cccc(Cl)c1)N=O	-1.512
CN(Cc1ccc([N+](=O)[O-])cc1)N=O	-2.202
CN(Cc1ccccc1)N=O	-3.416
CN(Cc1cccc(Br)c1)N=O	-1.552
CN(Cc1ccc(Br)cc1)N=O	-1.998

Field: next compound
Kindly note the recorded Log 1/C for CN(Cc1ccc(Cl)cc1)N=O , which is -1.933

----------
- PROTOCOL: Concentration in nmol/plate to induce 50 revertants/plate.
- Assay type: ADME
This section presents compounds with their documented Log 1/C values.
Please respond with just the number, no unit label.

Worked set:
ENTRY SMILES	Log 1/C
CN(Cc1cccc(C#N)c1)N=O	-2.139
CN(Cc1cccc([N+](=O)[O-])c1)N=O	-1.796
CN(Cc1ccc(C#N)cc1)N=O	-2.78

We next turn to a different compound, shown below.
Lab book: Log 1/C of Cc1cccc(CN(C)N=O)c1 noted as -3.039
